Measured TGI of individual entries
Test system: XF 498 CNS
Test: NCI tumour cell line growth inhibition, 48 h

# example entries with known answers
COC(=O)c1cccn1C(=O)n1cccc1: > 100 µM
COC(=O)c1ccc(N=NN(C)COc2ccc(Br)cc2)cc1: > 100 µM
CC(C)NC(=O)OCc1c(CO)c2c(n1C)-c1ccccc1CC2: 31.3 µM
CC(=O)C1C(c2ccc(N(C)C)cc2)c2cc3c(cc2OC1(C)O)OCO3 (stereo not given): > 100 µM
Cc1ccc(NC(=O)CC2Sc3ccccc3NC2=O)c(C)c1 (stereo not given): 37.5 µM
CC(C)N=C(N)NC#N: > 100 µM
CCOC(=O)N1CCC(=O)C(CNC23CC4CC(CC(C4)C2)C3)C1 (stereo not given): 32.8 µM
CC1=C(O)C(=O)C2C(=O)C1C1Cc3ccccc3C21 (stereo not given): > 100 µM

Could you tell me which TGI is on file for COC1C(O)C(n2ncc3c(SC)nc(SC)nc32)OC1C(O)CO (stereo not given) ?
> 100 µM

Could you tell me which TGI is on file for CC(=O)OC[C@@H](COC(=O)/C=C/c1ccc(O)cc1)OC1OC(CO)C(O)C(O)C1O (stereo not given in full) ?
> 100 µM

----------
Measured TGI of individual entries
Test system: BT-549 breast
Assay: NCI tumour cell line growth inhibition, 48 h

O=C(Cc1ccc(F)c(F)c1)Nc1cc(C2(C(F)(F)F)CC2)nn1Cc1ccccc1: > 15 µM
NCCCC[C@H](N)C(=O)Nc1ccc(-c2nc3ccccc3s2)cc1: 84.9 µM
Cc1nnc(-c2cccc(-c3ccc(C(=O)NCC4CC4)cc3)c2)o1: > 25 µM
Cn1cnc([N+](=O)[O-])c1Sc1nc(N)nc2c1ncn2C1CC(O)C(CO)O1 (stereo not given): > 100 µM

Now look at this one.
Could you tell me which TGI is on file for "CCOC(=O)C1(C(=O)OCC)OC(C)=NC1(C(=O)OC)C(=O)OC" ?
> 31.6 µM

----------
System: NCI-H522 lung
Assay: NCI tumour cell line growth inhibition, 48 h
MEASURE_NAME: GI50

C=CC(=O)Nc1cc(C)ccc1Nc1nc(Nc2cc(OC)ncc2C)ncc1C(F)(F)F: 1.14 µM
CN(Cc1ccccc1)c1ccc(CO)c(Cl)c1: 29 µM
CCOC(=O)c1cc2c(cc1Cl)SC(N(c1ccc(OC)cc1)S(=O)(=O)c1ccc(Cl)cc1)=NS2(=O)=O: 21 µM

Now look at this one.
Could you tell me which GI50 is on file for "C#CCSc1cc(Cl)c(C)cc1S(=O)(=O)Nc1nc2ccccc2o1" ?
25.7 µM

----------
Test system: HL-60(TB) leukemia
Test: NCI tumour cell line growth inhibition, 48 h; in the data active = GI50 below about 0.43 µM; inactive = the rest
Respond with a class label; see active, inactive

Recorded results for 5 compounds are shown here.
CCC[CH2][Sn]1([CH2]CCC)[O]CC(CN(C)Cc2ccccc2)[O]1 (stereo not given): inactive
O=C1C=CC(=Nc2cc(Br)c(O)c(Br)c2)C=C1: inactive
Cn1c2c(c3ccc([N+](=O)[O-])cc3c1=O)C(=O)c1ccccc1-2: inactive
O=c1cc(-c2cccc3c2Sc2ccccc2S3)oc(N2CCOCC2)c1: inactive
CC(C)(C)c1cc(-n2c(-c3ccc(Cl)cc3)nc3cc(C(=O)Nc4ccc(Cl)cc4)ccc32)n[nH]1: inactive

Could you kindly confirm the outcome this assay logged for "CCC(=C/[C@H](C)C/C=C/C(C)=C/[C@@H](C)C(=O)[C@@H](C)[C@H](O)[C@@H](C)CC)/C=C/[C@@H]1OC(=O)C=C[C@H]1C" ?
active

Could you kindly confirm the outcome this assay logged for COc1cc(C2SCC(=O)N2c2ncc(C)s2)cc(OC)c1OC (stereo not given) ?
inactive

Could you kindly confirm the outcome this assay logged for COc1cccc(NC(=O)c2sc3nc(C)c(C(O)c4ccccc4)cc3c2N)c1 (stereo not given) ?
active

Could you kindly confirm the outcome this assay logged for C[C@@]12CCC[C@@](C)(C(=O)O)C1CC[C@]13C[C@@](O)(CO)[C@](O)(CCC12)C3 (stereo not given in full) ?
inactive

Hey, just so you know, these numbers are from PubChem BioAssay (NCI).
